target: DNA-PKcs (Homo sapiens)
Sequence (P78527 whole entry): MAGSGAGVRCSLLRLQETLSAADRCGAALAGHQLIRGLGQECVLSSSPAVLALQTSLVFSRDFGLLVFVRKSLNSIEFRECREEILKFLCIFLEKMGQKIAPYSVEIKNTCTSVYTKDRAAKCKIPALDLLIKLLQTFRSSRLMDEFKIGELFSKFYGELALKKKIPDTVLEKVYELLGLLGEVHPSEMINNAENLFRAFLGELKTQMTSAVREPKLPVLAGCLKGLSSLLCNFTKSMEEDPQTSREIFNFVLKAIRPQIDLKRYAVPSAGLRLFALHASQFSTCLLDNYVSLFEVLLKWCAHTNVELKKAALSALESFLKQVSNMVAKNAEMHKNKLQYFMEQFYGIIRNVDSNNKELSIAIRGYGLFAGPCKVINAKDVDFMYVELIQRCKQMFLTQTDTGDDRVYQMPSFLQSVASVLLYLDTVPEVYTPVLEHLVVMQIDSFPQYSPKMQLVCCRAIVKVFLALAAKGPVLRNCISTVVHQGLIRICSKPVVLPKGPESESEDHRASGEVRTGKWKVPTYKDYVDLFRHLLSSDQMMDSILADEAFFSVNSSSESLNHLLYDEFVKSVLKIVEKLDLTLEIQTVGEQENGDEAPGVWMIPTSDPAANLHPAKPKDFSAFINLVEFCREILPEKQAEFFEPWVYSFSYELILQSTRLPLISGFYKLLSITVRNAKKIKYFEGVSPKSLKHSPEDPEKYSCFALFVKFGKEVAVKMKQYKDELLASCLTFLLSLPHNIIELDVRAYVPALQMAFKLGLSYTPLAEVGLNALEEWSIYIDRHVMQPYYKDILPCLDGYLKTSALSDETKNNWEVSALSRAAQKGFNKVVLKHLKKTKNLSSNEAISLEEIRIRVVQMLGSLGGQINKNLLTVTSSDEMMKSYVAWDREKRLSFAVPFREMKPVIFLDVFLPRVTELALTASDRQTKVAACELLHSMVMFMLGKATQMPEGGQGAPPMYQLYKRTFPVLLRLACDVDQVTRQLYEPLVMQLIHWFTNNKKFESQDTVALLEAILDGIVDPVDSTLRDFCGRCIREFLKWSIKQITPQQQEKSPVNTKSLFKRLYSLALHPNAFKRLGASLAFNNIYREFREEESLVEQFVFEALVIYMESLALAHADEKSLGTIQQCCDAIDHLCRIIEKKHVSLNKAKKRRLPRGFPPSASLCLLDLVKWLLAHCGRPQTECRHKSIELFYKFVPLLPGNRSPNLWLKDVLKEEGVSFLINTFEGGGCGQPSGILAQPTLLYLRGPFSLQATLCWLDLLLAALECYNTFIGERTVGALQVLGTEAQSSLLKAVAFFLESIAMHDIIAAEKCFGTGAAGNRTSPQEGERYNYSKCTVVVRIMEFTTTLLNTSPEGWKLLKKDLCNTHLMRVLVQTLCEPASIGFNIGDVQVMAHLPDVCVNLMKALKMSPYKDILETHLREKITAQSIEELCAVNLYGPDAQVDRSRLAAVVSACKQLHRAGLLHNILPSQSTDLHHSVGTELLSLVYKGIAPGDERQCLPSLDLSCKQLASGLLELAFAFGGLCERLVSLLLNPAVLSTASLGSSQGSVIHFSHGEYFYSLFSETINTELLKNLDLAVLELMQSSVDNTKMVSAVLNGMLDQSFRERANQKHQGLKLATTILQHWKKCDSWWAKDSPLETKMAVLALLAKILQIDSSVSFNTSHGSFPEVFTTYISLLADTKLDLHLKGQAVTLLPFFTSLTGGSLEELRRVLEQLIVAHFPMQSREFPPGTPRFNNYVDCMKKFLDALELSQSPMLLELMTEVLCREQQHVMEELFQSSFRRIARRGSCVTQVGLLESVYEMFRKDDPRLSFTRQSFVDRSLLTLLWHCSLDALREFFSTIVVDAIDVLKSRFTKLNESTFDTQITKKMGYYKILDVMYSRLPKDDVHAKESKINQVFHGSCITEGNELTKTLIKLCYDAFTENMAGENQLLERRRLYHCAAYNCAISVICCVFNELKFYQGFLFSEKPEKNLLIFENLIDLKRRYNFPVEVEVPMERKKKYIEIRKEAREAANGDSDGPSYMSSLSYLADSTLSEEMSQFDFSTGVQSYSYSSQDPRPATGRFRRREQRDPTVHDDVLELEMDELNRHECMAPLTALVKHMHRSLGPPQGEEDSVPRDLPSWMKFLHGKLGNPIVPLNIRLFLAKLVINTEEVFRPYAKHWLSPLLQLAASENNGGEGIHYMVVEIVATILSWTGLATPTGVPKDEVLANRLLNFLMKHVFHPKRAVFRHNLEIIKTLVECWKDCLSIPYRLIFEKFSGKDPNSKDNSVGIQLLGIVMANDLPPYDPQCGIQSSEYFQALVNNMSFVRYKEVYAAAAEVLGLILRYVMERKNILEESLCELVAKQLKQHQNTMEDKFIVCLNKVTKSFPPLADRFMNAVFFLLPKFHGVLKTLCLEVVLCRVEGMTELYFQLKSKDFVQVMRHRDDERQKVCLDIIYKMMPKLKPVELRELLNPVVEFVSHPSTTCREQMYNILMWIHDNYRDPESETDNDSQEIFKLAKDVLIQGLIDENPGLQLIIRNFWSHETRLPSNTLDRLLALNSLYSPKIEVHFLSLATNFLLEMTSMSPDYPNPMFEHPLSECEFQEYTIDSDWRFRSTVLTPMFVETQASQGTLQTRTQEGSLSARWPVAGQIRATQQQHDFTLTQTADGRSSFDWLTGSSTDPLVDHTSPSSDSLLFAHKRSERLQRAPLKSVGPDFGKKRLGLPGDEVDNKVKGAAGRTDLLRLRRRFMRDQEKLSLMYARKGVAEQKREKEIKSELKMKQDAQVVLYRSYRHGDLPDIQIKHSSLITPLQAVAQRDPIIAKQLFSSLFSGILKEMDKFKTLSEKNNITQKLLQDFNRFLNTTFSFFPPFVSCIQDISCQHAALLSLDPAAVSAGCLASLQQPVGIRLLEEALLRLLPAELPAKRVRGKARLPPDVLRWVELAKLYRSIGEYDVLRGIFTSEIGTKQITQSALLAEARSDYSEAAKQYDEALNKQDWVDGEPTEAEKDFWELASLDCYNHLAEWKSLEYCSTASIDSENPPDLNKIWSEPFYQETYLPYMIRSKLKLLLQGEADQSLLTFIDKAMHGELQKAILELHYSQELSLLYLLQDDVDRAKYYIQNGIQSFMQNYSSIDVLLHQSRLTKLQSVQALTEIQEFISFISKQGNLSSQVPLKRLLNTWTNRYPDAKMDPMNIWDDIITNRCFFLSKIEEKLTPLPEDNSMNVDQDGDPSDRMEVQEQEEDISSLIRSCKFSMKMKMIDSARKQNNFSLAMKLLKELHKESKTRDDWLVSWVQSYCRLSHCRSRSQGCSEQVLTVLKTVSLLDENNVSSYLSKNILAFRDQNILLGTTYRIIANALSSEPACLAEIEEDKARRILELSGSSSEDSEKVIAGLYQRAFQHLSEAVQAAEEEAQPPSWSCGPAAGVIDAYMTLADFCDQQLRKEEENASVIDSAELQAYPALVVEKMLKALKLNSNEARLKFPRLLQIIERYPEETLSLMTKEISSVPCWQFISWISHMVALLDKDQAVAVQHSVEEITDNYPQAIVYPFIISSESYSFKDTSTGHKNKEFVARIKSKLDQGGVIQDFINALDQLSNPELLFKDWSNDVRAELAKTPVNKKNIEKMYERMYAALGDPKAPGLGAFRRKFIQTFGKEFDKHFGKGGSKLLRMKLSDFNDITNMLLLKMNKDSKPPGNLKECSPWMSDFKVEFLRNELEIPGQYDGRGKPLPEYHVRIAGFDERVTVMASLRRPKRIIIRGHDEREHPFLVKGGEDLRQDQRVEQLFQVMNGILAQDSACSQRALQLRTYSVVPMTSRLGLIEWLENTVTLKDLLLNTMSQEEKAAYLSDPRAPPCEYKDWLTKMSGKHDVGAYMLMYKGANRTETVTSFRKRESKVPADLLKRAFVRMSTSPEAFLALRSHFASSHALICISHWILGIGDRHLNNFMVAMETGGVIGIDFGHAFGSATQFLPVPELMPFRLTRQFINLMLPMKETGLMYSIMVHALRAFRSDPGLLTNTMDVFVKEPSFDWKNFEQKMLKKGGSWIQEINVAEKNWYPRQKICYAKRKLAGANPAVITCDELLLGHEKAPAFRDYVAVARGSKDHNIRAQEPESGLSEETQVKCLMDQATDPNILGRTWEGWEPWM
readout name: IC50 (nM)
Numbers only, in nM.

The following molecules have reported results that may help.
> print(dat)
                                   molecule  experimental.result
1  Cc1c(CCC(=O)O)c[nH]c1/C=C1\C(=O)Nc2ccc(I)cc21                 1500
2  CNS(=O)(=O)c1ccc2c(c1)C(=Cc1[nH]c3c(c1CCCN(C)C)CCCC3)C(=O)N2                66000

Would you kindly look at the next entry?
Query :: Fill in the blank: the reported IC50 of CCc1[nH]c(/C=C2\C(=O)Nc3ccc(S(=O)(=O)Nc4ccccc4)cc32)c(CC)c1CCC(=O)O [Example 83] is ____.
Result :: 1600
